Overview of reported KIDNEY_TOTAL across a group of compounds:
species: Rattus norvegicus; assay: Open TG-GATES - Regimen: Daily Repeat; format: toxicity, organism-based, Sprague-Dawley; parameters: regimen Daily Repeat, gender Male, age 6 weeks; conditions: in vivo, po, 10 mg/kg, […], tissue Kidney, route gavage, dose level Low, time 14 day

{"columns": ["Compound", "KIDNEY_TOTAL (g)"],
 "data": [
  ["CC(C)OC(=O)C(C)(C)Oc1ccc(C(=O)c2ccc(Cl)cc2)cc1 [FENOFIBRATE]", 2.6],
  ["CC1=C(/C=C/C(C)=C/C=C/C(C)=C/CO)C(C)(C)CCC1 [RETINOL]", 2.3],
  ["CN(C)CCCN1c2ccccc2CCc2ccccc21 [IMIPRAMINE]", 2.5],
  ["CN(C)CCN(Cc1cccs1)c1ccccn1", 2.3]
]}
